All figures here come from paper PMC4017264.

B1: HOIP extended PUB domain (aa 1–184) [not stated] / FITC-Ahx-labeled OTULIN PIM peptide (aa 49–67) [modified: FITC-Ahx label; FITC-Ahx label] [not stated] (parent complex)
chain 1: MPGEEEERAFLVAREELASALRRDSGQAFSLEQLRPLLASSLPLAARYLQLDAARLVRCNAHGEPRNYLNTLSTALNILEKYGRNLLSPQRPRYWRGVKFNNPVFRSTVDAVQGGRDVLRLYGYTEEQPDGLSFPEGQEEPDEHQVATVTLEVLLLRTELSLLLQNTHPRQQALEQLLEDKVED
chain 2: AEHEEDMYRAADEIEKEKE

- Variants of: B1
- Assay summary: fluorescence polarisation; triplicate
Measurement type: pKd
Would you please state pKd, meaning minus log10 of the concentration in mol/L, as a bare number?

GET /value?item= chain 1 V104A &field=pKd returns 5.69
